test: NCI Yeast Anticancer Drug Screen. Data for the mlh1 rad18 strain (AID 175); conditions: S. cerevisiae mlh1 rad18 strain growth inhibition; at 50.0 µM; hits give high values
Compounds without any hit were thinned out: in the full panel of roughly 79,000, 15% have a hit.
measurement-type: growth inhibition (%)
// units = %; emit number, no label

Would you please look over these solved cases?
ClCC1CCN(CCc2ccccc2)CC1 ... 9.65
COC(=O)c1ccc([As]=O)cc1N (centres undefined) ... 99
C1CC[N-]CC1.CC(=N\O)/C(C)=N/O.CC(=N\O)/C(C)=N/O.[CH2-]Cl.[Co+2] ... 27.9
Nc1ccc([N+](=O)[O-])cc1[N+](=O)[O-] ... 11
CCOP(=O)(NCCc1ccccc1)OCC ... -12.4

Incoming: Look up growth inhibition of CC(=O)[CH-]C(C)=O.CC(=O)[CH-]C(C)=O.[O-]c1ccccc1.[O-]c1ccccc1.[Ti+4] and report it.
Outgoing: 16.9

Incoming: Return value of growth inhibition for input NC(=O)C(Cl)(Cl)Cl , no commentary.
Outgoing: 12.4

Incoming: Report measured growth inhibition; entry is CS(=O)(=O)OC1C2CC(C1OS(C)(=O)=O)C(c1ccccc1)C2C(=O)O (centres undefined)
Outgoing: 34.2

====

experiment: NCI Yeast Anticancer Drug Screen. Data for the mlh1 rad18 strain (AID 175); conditions: S. cerevisiae mlh1 rad18 strain growth inhibition; at 50.0 µM; hits give high values
About 79,000 compounds went through this panel and 15% of them were active in at least one assay; those are over-represented in the sample as a whole.
measurement-type: growth inhibition (%)
Record the value in %, omitting the unit from your answer.

// known answers, use as guide
CCC(CO)N=Cc1ccccc1O.CCC(CO)N=Cc1ccccc1O.[Ni] (configuration not stated) ... 25.5
[Cl][Hg][c]1ccccc1N=Nc1ccccc1I ... 99.2
C[CH2][Sn]([CH2]C)([CH2]C(=O)OC)[CH2]C(=O)OC ... -9.9
[Ni+2].[S-]CC[S-] ... -4.85

Incoming: // Input: CN(C)c1ccc(/C=C/[N+](=O)[O-])cc1 . Output its growth inhibition only.
Outgoing: -3.25

Incoming: Give the value of growth inhibition reported for the following: CCC[CH2][Pb]([CH2]CCC)([CH2]CCC)[n]1ccnc1
Outgoing: 91

Incoming: Query growth inhibition for O=[N+]([O-])c1ccc(NC(c2ccccc2)P(=O)(Oc2ccccc2)Oc2ccccc2)cc1 (configuration not stated)
Outgoing: 3.65

Incoming: Return growth inhibition for the following compound: C/C=C(\C)C(=O)N[C@@H](c1ccccc1)[C@@H](O)C(=O)OC1C[C@@]2(O)[C@@H](OC(=O)c3ccccc3)[C@@H]3[C@]4(OC(C)=O)CO[C@@H]4C[C@H](O)[C@@]3(C)C(=O)[C@H](OC(C)=O)C(=C1C)C2(C)C (some centres not stated)
Outgoing: 29.9

Incoming: Consider the compound CN(C)S(=O)(=O)N(SC(F)(Cl)Cl)c1ccccc1 . State its measured growth inhibition.
Outgoing: 99

Incoming: Write down growth inhibition measured for item C[C@]12CCCC[C@@H]1CC[C@@H]1[C@@H]2C(=O)C[C@@]2(C)[C@H]1CC[C@]2(C)O
Outgoing: 98

Incoming: Respond only with growth inhibition recorded for CCOC(=O)/C(=C\c1ccc(C(F)(F)F)cc1)[Se]c1ccccc1
Outgoing: -0.3

Incoming: Provide only the value of recorded growth inhibition for C/C(=N/NC(N)=S)c1ccc(Cl)cc1
Outgoing: 97.2

Incoming: Provide only the value of recorded growth inhibition for NC1CCCCC1.[O]=[Ge].[O]=[Ge].[O]=[Ge][OH].[O]=[Ge][OH]
Outgoing: 4.95

Incoming: Provide only the value of recorded growth inhibition for O=C(N/N=C/c1cc(Br)cc(Br)c1[O-])c1ccccc1O.O=C(N/N=C/c1cc(Br)cc(Br)c1[O-])c1ccccc1O.[Ni+2]
Outgoing: 55.6

====

Listed here are compounds together with their documented growth inhibition.
test: NCI Yeast Anticancer Drug Screen. Data for the cln2 rad14 strain (AID 165);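 also: 0% = growth equal to vehicle treated cultures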; conditions: S. cerevisiae cln2 rad14 strain, at 50.0 µM, hits give high values
Compounds without any hit were thinned out: in the full panel of roughly 79,000, 15% have a hit.
Please state the figure in %; there is no need to write the unit.

Solved cases below.
Cc1c2n(c3ccccc13)CC1CON(C)C21 (stereo not drawn) ... -1.3
C[C@]12C/C(=C/O)C(=O)C(O)=C1CC[C@@H]1C2CC[C@@]2(C)C1CC[C@@H]2O (stereo partly drawn) ... 62.2

Query compound follows.
Incoming: Provide growth inhibition value for the following compound: COc1ccc2ccc3oc([N+](=O)[O-])cc3c2c1
Outgoing: -14

====

assay: NCI Yeast Anticancer Drug Screen. Data for the mec2-1 strain (AID 157); settings: S. cerevisiae mec2-1 strain, at 50.0 µM, hits give high values
The panel holds about 79,000 compounds, 15% with a hit somewhere; the sample as a whole holds those more often.
Catalogue of growth inhibition values
Your answer is read as %, so omit the unit and give the number.

Some solved entries appear below for comparison.
O=C1C(Cl)=C(Cl)C(=O)c2ccccc21 ... 97
O=[N+]([O-])CCCl ... 2.1
[CH3][Sn]1([CH3])[O]C(=O)c2ccccc2C(=O)[O]1 ... 15.7

Incoming: Return growth inhibition (reported value) for this molecule: Cc1cc(C(C)(C)c2cc(C)c(O)c(C)c2)cc(C)c1O
Outgoing: -41.1

====

Assay: NCI Yeast Anticancer Drug Screen. Data for the cln2 rad14 strain (AID 165);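 also: 0% = growth equal to vehicle treated cultures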
Conditions: S. cerevisiae cln2 rad14 strain, at 50.0 µM (retest, dose inferred, filed as 5.0), hits give high values
Experimental: Growth inhibition of yeast strains with defined genetic alterations is measured as a screen for potential anti-cancer activity. Selected strains with alterations in DNA damage repair or cell cycle control were exposed to compounds and growth inhibition was measured relative to vehicle treated controls. The strain used in this assay is cln2 rad14
Compounds without any hit were thinned out: in the full panel of roughly 79,000, 15% have a hit.
measurement-type: growth inhibition (%)
Form entry: value (%) — number only.

COC(=O)c1ccc([As]=O)cc1N (stereo not drawn) ... -6
CCOC(=O)c1ccc(N=Cc2ccc(N(CCCl)CCCl)cc2C)cc1 ... -15
O=C(O)C1CC2c3ccccc3C1([N+](=O)[O-])c1ccccc12 (stereo not drawn) ... 15
C/C(=C\c1ccc(Cl)c(Cl)c1)[N+](=O)[O-] ... 59
O=[N+]([O-])O.[In] ... 22

Incoming: Please look at this compound and report its growth inhibition: CN(C=O)NC(=O)N(CCCl)N=O
Outgoing: 16

Incoming: Provide only the value of recorded growth inhibition for O=[N+]([O-])c1ccc(C(Br)Br)cc1
Outgoing: 99

Incoming: Supply measured growth inhibition of C[C@@H]1C[C@@H]([C@H](O)CC2CC(=O)NC(=O)C2)C(=O)[C@@H](C)C1 in your reply.
Outgoing: 99

Incoming: // fetch growth inhibition given entry CC(=O)[O][Sn]([c]1ccccc1)([c]1ccccc1)[c]1ccccc1
Outgoing: 98

Incoming: Provide growth inhibition value for the following compound: O=C(CBr)OCCBr
Outgoing: 98

====

experiment: NCI Yeast Anticancer Drug Screen. Data for the mec2-1 strain (AID 157); conditions: S. cerevisiae mec2-1 strain, at 5.0 µM (retest, dose inferred, filed as 0.5), hits give high values
The panel holds about 79,000 compounds, 15% with a hit somewhere; the sample as a whole holds those more often.
Reported growth inhibition values for a set of compounds
Please give a number only; it is taken to be in %.

N=C(N)c1ccc(NN=Nc2cccc3c2Oc2ccccc2O3)cc1 ... 20
O=S(=O)(F)c1cc(Cl)c(O)cc1Cl ... -45
C#CC(/C=C/Cl)(CC)OC(N)=O (stereo not drawn) ... 4
CC(=O)NNc1ccccc1 ... 2

Incoming: Let me know recorded growth inhibition for Nc1nc(N)c(-c2ccc(Cl)c(Cl)c2)c(CCc2ccc(CNC(=O)c3cccc(S(=O)(=O)F)c3)cc2)n1 , thanks.
Outgoing: -1

Incoming: For the compound [N-]=[N+]=NS(=O)(=O)c1ccccc1S(=O)(=O)N=[N+]=[N-] , give its reported growth inhibition.
Outgoing: 8

Incoming: Please report the measured growth inhibition for C/C(=N\N=C(/[Se])N1CCC(C)CC1)c1ccccn1
Outgoing: 24

Incoming: Provide only the value of recorded growth inhibition for CCOP(=S)(OCC)SSSP(=S)(OCC)OCC
Outgoing: 5

Incoming: Report growth inhibition, nothing else, for this compound: C/C(=C\c1ccc(Cl)c(Cl)c1)[N+](=O)[O-]
Outgoing: 12

Incoming: Return reported growth inhibition. Input compound: CCCC(C)(COC(N)=O)COC(=O)NC1CC1 (stereo not drawn)
Outgoing: -12

Incoming: Find the measured growth inhibition of [O-][n+]1onc2c1-c1nonc1CC2 and report it.
Outgoing: -16

Incoming: Name the recorded growth inhibition of the item C[N+](C)(C)CC1CCCc2ccccc2C1=O (stereo not drawn) in your answer.
Outgoing: 20

Incoming: Given CC(=O)Nc1ccccc1[As](OC(C)=O)c1ccccc1 (stereo not drawn) , respond with its growth inhibition.
Outgoing: 11

Attribution: PubChem BioAssay (NCI)
